Hey, just so you know, these numbers are from patent US20260028354A1.

# test-system: UniProtKB P03372
# Sequence (P03372 whole entry): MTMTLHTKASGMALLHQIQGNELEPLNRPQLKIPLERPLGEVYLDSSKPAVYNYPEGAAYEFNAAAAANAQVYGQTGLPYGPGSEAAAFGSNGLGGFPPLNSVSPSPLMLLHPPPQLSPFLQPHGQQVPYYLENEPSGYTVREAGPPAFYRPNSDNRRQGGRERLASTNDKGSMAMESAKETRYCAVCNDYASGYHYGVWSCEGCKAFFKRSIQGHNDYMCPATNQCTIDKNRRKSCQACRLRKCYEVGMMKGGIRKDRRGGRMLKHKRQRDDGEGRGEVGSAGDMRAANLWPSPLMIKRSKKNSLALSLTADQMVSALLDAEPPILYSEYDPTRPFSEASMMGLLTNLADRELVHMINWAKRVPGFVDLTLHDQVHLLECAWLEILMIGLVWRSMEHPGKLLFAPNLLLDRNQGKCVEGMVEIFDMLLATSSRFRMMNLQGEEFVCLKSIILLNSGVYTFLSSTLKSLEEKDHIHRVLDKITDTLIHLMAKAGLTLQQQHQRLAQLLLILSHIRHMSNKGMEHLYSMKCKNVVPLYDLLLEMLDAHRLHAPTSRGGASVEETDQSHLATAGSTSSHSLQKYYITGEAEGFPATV
# test-details: In-cell western blot analysis of ER for "B" compounds
# Format: cell-based
# measurement-parameters: 16 hours, read-out: ICW DC50
measured-parameter: DC50

Some solved cases for reference:
compound	DC50
O=C1CCC(Nc2ccc(N3CCN(CC4CC5(CCN(c6ccc([C@@H]7c8ccc(O)cc8CC[C@@H]7c7ccccc7)cc6)CC5)C4)CC3)c(F)c2)C(=O)N1 (some centres unmarked) [Compound B381]	> 100 nM
O=C1CC[C@H](N2Cc3c(ccc4c3OCC43CCN(CC4COC5(CCN(c6ccc([C@@H]7c8ccc(O)cc8CC[C@@H]7c7ccccc7)cc6)CC5)OC4)CC3)C2=O)C(=O)N1 [Compound B337]	< 10 nM
O=C1CCC(N2Cc3cc4c(cc3C2=O)OC[C@@H]2CN(C(=O)CN3CCC5(C3)CN(c3ccc([C@@H]6c7ccc(O)cc7CC[C@@H]6c6ccccc6)cc3)C5)CCN42)C(=O)N1 (some centres unmarked) [Compound B154]	< 10 nM
O=C1CCC(N2C(=O)c3cc4c(cc3C2=O)CN(CC2COC3(CCN(c5ccc([C@@H]6c7ccc(O)cc7CC[C@@H]6c6ccccc6)cc5)CC3)OC2)C4)C(=O)N1 (some centres unmarked) [Compound B338]	10 to 100 nM
O=C1CCC(N2Cc3c(ccc4c3OCC43CCN(CC4CCC5(CC4)CN(c4ccc([C@@H]6c7ccc(O)cc7CC[C@@H]6c6ccccc6)cc4)C5)CC3)C2=O)C(=O)N1 (some centres unmarked) [Compound B228]	< 10 nM

Please give DC50 for each item listed below.
1. CN(C(=O)c1ccc2c(c1)OC[C@H]1CN(CC3CC4(CCN(c5ccc([C@@H]6c7ccc(O)cc7CC[C@@H]6c6ccccc6)cc5)CC4)C3)CCN21)C1CCC(=O)NC1=O (some centres unmarked) [Compound B326]
2. O=C1CCC(N2Cc3cc4c(cc3C2=O)OC[C@@H]2CN(CC(=O)N3CCC5(CC3)CCN(c3ccc([C@@H]6c7ccc(O)cc7CC[C@@H]6c6ccccc6)cn3)CC5)CCN42)C(=O)N1 (some centres unmarked) [Compound B148]
3. O=C1CCC(N2Cc3cc4c(cc3C2=O)OC[C@@H]2CN(CC3COC5(CCN(c6ccc([C@@H]7c8ccc(O)cc8CC[C@@H]7c7ccccc7)cc6)CC5)O3)CCN42)C(=O)N1 (some centres unmarked) [Compound B239]
4. O=C1CC[C@H](NC(=O)c2ccc3c(n2)OC[C@H]2CN(CC4CC5(CCN(c6ccc([C@@H]7c8ccc(O)cc8CC[C@@H]7c7ccccc7)cc6)CC5)C4)CCN32)C(=O)N1 [Compound B225]
5. O=C1CCC(N2Cc3c(ccc4c3N3CCN(CC5CCN(c6ccc([C@@H]7c8ccc(O)cc8CC[C@@H]7c7ccccc7)cc6)CC5)C[C@H]3CO4)C2=O)C(=O)N1 (some centres unmarked) [Compound B243]
6. O=C1CCC(N2Cc3c(ccc4c3OC[C@H]3CN(C[C@@H]5CCN(c6ccc([C@@H]7c8ccc(O)cc8CC[C@@H]7c7ccccc7)cc6)C5)CCN43)C2=O)C(=O)N1 (some centres unmarked) [Compound B215]
7. O=C1CCC(N2Cc3c(ccc4c3OC[C@@H]3CN(CC5CCN(c6ccc([C@@H]7c8ccc(O)cc8CC[C@@H]7c7ccccc7)cc6)CC5)CCN43)C2=O)C(=O)N1 (some centres unmarked) [Compound B306]

Ans.
1: > 100 nM; 2: 10 to 100 nM; 3: 10 to 100 nM; 4: 10 to 100 nM; 5: 10 to 100 nM; 6: 10 to 100 nM; 7: > 100 nM

Please give DC50 for each item listed below.
1. O=C1CC[C@H](N2Cc3cc4c(cc3C2=O)OC[C@@H]2CN(C[C@@H]3COC5(CCN(c6ccc([C@@H]7c8ccc(O)cc8CC[C@@H]7c7ccccc7)cc6)CC5)C3)CCN42)C(=O)N1 [Compound B399]
2. O=C1CCC(N2Cc3cc4c(cc3C2=O)OC[C@@H]2CN(C(=O)CN3CC5(CCN(c6ccc([C@@H]7c8ccc(O)cc8CC[C@@H]7c7ccccc7)cc6)C5)C3)CCN42)C(=O)N1 (some centres unmarked) [Compound B206]
3. O=C1CC[C@H](NC(=O)c2ccc3c(c2)OC[C@@H]2CN(CC4CCN(c5ccc([C@@H]6c7ccc(O)cc7CC[C@@H]6c6ccccc6)cc5)CC4)CCN32)C(=O)N1 [Compound B257]

Ans.
1: < 10 nM; 2: < 10 nM; 3: > 100 nM

Please give DC50 for each item listed below.
1. O=C1CCC(N2Cc3cc4c(cc3C2=O)OC[C@@H]2CN(CC3CCC5(CCN(c6ccc([C@@H]7c8ccc(O)cc8CC[C@@H]7c7ccccc7)cc6)CC5)O3)CCN42)C(=O)N1 (some centres unmarked) [Compound B177]
2. O=C1CC[C@H](NC(=O)c2ccc3c(n2)OC[C@H]2CN(CC4COC5(CN(c6ccc([C@@H]7c8ccc(O)cc8CC[C@@H]7c7ccccc7)cc6)C5)OC4)CCN32)C(=O)N1 [Compound B347]
3. O=C1CCC(N2Cc3cc4c(cc3C2=O)OC[C@@H]2CN(CC3CC5(CCN(c6ccc([C@@H]7c8ccc(O)cc8CC[C@@H]7c7ccccc7)cc6)CC5)CO3)CCN42)C(=O)N1 (some centres unmarked) [Compound B173]
4. O=C1CCC(N2C(=O)c3cc4c(cc3C2=O)CN(CC2COC3(CCN(c5ccc([C@@H]6c7ccc(O)cc7CC[C@@H]6c6ccccc6)cc5)CC3)C2)C4)C(=O)N1 (some centres unmarked) [Compound B235]

Ans.
> 100 nM
10 to 100 nM
> 100 nM
> 100 nM

Qu. Given the compound O=C1CCC(N2Cc3cc4c(cc3C2=O)OC[C@@H]2CN(CC(=O)N3CCC5(CC3)CCN(c3ccc([C@@H]6c7ccc8[nH]ncc8c7CC[C@@H]6c6ccccc6)cc3)CC5)CCN42)C(=O)N1 (some centres unmarked) [Compound B389] , write its reported DC50.
Ans. > 100 nM
